test system: 242566-281-R-J2-PDC complex spheroid viability; test: Anticancer human tumor 242566-281-R-J2-PDC patient-derived pancreatic carcinoma cell line growth inhibition [RAS]; conditions: second compound 0.00316 µM; first compound 0.01 µM; stronger effect = lower value
QUANTITY_MEASURED: viability, T/C (%)
Dear colleague, please return just the value in %, with no unit written.

# annotated cases, reported viability, T/C shown
MOLECULE | TEST_SYSTEM | OUTPUT_UNIT | viability, T/C
O=C(c1ccc(F)c(F)c1Nc1ccc(I)cc1F)N1CC(O)([C@@H]2CCCCN2)C1 + C=CC(=O)N1CCN(c2nc(OCC3CCCN3C)nc3c(F)c(-c4nc(N)cc(C)c4C(F)(F)F)c(Cl)cc23)C(C)C1 | 242566-281-R-J2-PDC complex spheroid viability | % | 116
CCN1CCN(Cc2ccc(Nc3ncc(F)c(-c4cc(F)c5nc(C)n(C(C)C)c5c4)n3)nc2)CC1 + C=CC(=O)N1CCN(c2nc(OCC3CCCN3C)nc3c(F)c(-c4nc(N)cc(C)c4C(F)(F)F)c(Cl)cc23)C(C)C1 | 242566-281-R-J2-PDC complex spheroid viability | % | 135
Nc1ccn(C2OC(CO)C(O)C2(F)F)c(=O)n1 (stereo not given) + C=CC(=O)N1CCN(c2nc(OCC3CCCN3C)nc3c(F)c(-c4nc(N)cc(C)c4C(F)(F)F)c(Cl)cc23)C(C)C1 | 242566-281-R-J2-PDC complex spheroid viability | % | 118
C=CC(=O)Nc1cc(Nc2nccc(-c3cn(C)c4ccccc34)n2)c(OC)cc1N(C)CCN(C)C + C=CC(=O)N1CCN(c2nc(OCC3CCCN3C)nc3c(F)c(-c4nc(N)cc(C)c4C(F)(F)F)c(Cl)cc23)C(C)C1 | 242566-281-R-J2-PDC complex spheroid viability | % | 133

We now examine a further molecule.
Query: Notebook entry, 242566-281-R-J2-PDC complex spheroid viability assay: viability, T/C of CC(C)n1nc(-c2ccc3oc(N)nc3c2)c2c(N)ncnc21 + C=CC(=O)N1CCN(c2nc(OCC3CCCN3C)nc3c(F)c(-c4nc(N)cc(C)c4C(F)(F)F)c(Cl)cc23)C(C)C1 = ?
Result: 78.9

---

system: 242566-281-R-J2-PDC complex spheroid viability; test: Anticancer human tumor 242566-281-R-J2-PDC cell line growth inhibition [RAS]; conditions: second compound 0.0949 µM; first compound 10 µM; stronger effect = lower value;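 further: spheroids exposed to compound for 7 days before readout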;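 on viability, T/C: 100% = DMSO vehicle control wells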
// assign criterion met if viability, T/C falls strictly below 30%, else criterion not met (ties count as criterion not met)

COMPOUND | CLASS_LABEL
CC(C)NCC(C(=O)N1CCN(c2ncnc3c2C(C)CC3O)CC1)c1ccc(Cl)cc1 (stereo not drawn) + CCn1c(-c2cccnc2C(C)OC)c2c3cc(ccc31)N1CCOC(CC(NC(=O)C(C(C)C)N(C)C(=O)C3(F)CCN(C(=O)C#CC(C)(C)N(C)C)CC3)C(=O)N3CCCC(N3)C(=O)OCC(C)(C)C2)C1 | criterion not met

Query: Decide: viability, T/C of CCC(CC)c1cc(NC2CCC(N)C2)n2nccc2n1 (stereo not drawn) + CCn1c(-c2cccnc2C(C)OC)c2c3cc(ccc31)N1CCOC(CC(NC(=O)C(C(C)C)N(C)C(=O)C3(F)CCN(C(=O)C#CC(C)(C)N(C)C)CC3)C(=O)N3CCCC(N3)C(=O)OCC(C)(C)C2)C1 strictly below 30%?
Result: criterion met

Query: Now consider C[C@@H](NC(=O)c1ncnc(N)c1Cl)c1ncc(C(=O)Nc2cc(C(F)(F)F)c(Cl)cn2)s1 + CCn1c(-c2cc(N3CCN(C)CC3)cnc2C(C)OC)c2c3cc(ccc31)-c1csc(n1)CC(NC(=O)C1CC1C)C(=O)N1CCCC(N1)C(=O)OCC(C)(C)C2 and answer again.
Result: criterion met

Query: Now consider CC(=O)OC12COC1CC(O)C1(C)C(=O)C(O)C3=C(C)C(OC(=O)C(O)C(NC(=O)OC(C)(C)C)c4ccccc4)CC(O)(C(OC(=O)c4ccccc4)C21)C3(C)C (stereo not drawn) + CCn1c(-c2cc(N3CCN(C)CC3)cnc2C(C)OC)c2c3cc(ccc31)-c1csc(n1)CC(NC(=O)C1CC1C)C(=O)N1CCCC(N1)C(=O)OCC(C)(C)C2 and answer again.
Result: criterion met

Query: Now consider CC1(O)CCCC1n1c(=O)c(C(F)F)cc2cnc(NC3CCN(S(C)(=O)=O)CC3)nc21 (stereo not drawn) + CCn1c(-c2cc(N3CCN(C)CC3)cnc2C(C)OC)c2c3cc(ccc31)-c1csc(n1)CC(NC(=O)C1CC1C)C(=O)N1CCCC(N1)C(=O)OCC(C)(C)C2 and answer again.
Result: criterion met

Query: Now consider NC1c2ccccc2OC12CCN(c1cnc3c(N4CCCc5ncccc54)n[nH]c3n1)CC2 (stereo not drawn) + CCn1c(-c2cccnc2C(C)OC)c2c3cc(ccc31)N1CCOC(CC(NC(=O)C(C(C)C)N(C)C(=O)C3(F)CCN(C(=O)C#CC(C)(C)N(C)C)CC3)C(=O)N3CCCC(N3)C(=O)OCC(C)(C)C2)C1 and answer again.
Result: criterion met

Query: Now consider Cc1nc(N2CCC3(CC2)COC(C)C3N)c(CO)nc1Sc1ccnc(N)c1Cl (stereo not drawn) + CCn1c(-c2cc(N3CCN(C)CC3)cnc2C(C)OC)c2c3cc(ccc31)-c1csc(n1)CC(NC(=O)C1CC1C)C(=O)N1CCCC(N1)C(=O)OCC(C)(C)C2 and answer again.
Result: criterion met

Query: Now consider CC1(O)CCCC1n1c(=O)c(C(F)F)cc2cnc(NC3CCN(S(C)(=O)=O)CC3)nc21 (stereo not drawn) + CCn1c(-c2cccnc2C(C)OC)c2c3cc(ccc31)N1CCOC(CC(NC(=O)C(C(C)C)N(C)C(=O)C3(F)CCN(C(=O)C#CC(C)(C)N(C)C)CC3)C(=O)N3CCCC(N3)C(=O)OCC(C)(C)C2)C1 and answer again.
Result: criterion not met

---

tested on: 242566-281-R-J2-PDC complex spheroid viability; experiment: Anticancer human tumor 242566-281-R-J2-PDC cell line growth inhibition [RAS]; conditions: curve of first compound; second compound 1 µM;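 further: spheroids exposed to compound for 7 days before readout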
pIC50: −log10 of the molar value.
QUANTITY_MEASURED: pIC50

# annotated cases, reported pIC50 shown
MOLECULE | QUANTITY_MEASURED | RESULT
C[C@@H](NC(=O)c1ncnc(N)c1Cl)c1ncc(C(=O)Nc2cc(C(F)(F)F)c(Cl)cn2)s1 + C#Cc1c(F)ccc2cc(O)cc(-c3ncc4c(N5CC6CCC(C5)N6)nc(OCC56CCCN5CC(F)C6)nc4c3F)c12 | pIC50 | < 5.00
CC(=O)OC12COC1CC(O)C1(C)C(=O)C(O)C3=C(C)C(OC(=O)C(O)C(NC(=O)OC(C)(C)C)c4ccccc4)CC(O)(C(OC(=O)c4ccccc4)C21)C3(C)C (configuration not stated) + C#Cc1c(F)ccc2cc(O)cc(-c3ncc4c(N5CC6CCC(C5)N6)nc(OCC56CCCN5CC(F)C6)nc4c3F)c12 | pIC50 | > 7.50
CC(=O)OC12COC1CC(O)C1(C)C(=O)C(O)C3=C(C)C(OC(=O)C(O)C(NC(=O)OC(C)(C)C)c4ccccc4)CC(O)(C(OC(=O)c4ccccc4)C21)C3(C)C (configuration not stated) + C=CC(=O)N1CCN(c2nc(OCC3CCCN3C)nc3c(F)c(-c4nc(N)cc(C)c4C(F)(F)F)c(Cl)cc23)C(C)C1 | pIC50 | > 7.50
O=C(c1ccc(F)c(F)c1Nc1ccc(I)cc1F)N1CC(O)([C@@H]2CCCCN2)C1 + C#Cc1c(F)ccc2cc(O)cc(-c3ncc4c(N5CC6CCC(C5)N6)nc(OCC56CCCN5CC(F)C6)nc4c3F)c12 | pIC50 | 8.07
CC(C)n1nc(-c2ccc3oc(N)nc3c2)c2c(N)ncnc21 + C=CC(=O)N1CCN(c2nc(OCC3CCCN3C)nc3c(F)c(-c4nc(N)cc(C)c4C(F)(F)F)c(Cl)cc23)C(C)C1 | pIC50 | < 7.00
Nc1ccn(C2OC(CO)C(O)C2(F)F)c(=O)n1 (configuration not stated) + C=CC(=O)N1CCN(c2nc(OCC3CCCN3C)nc3c(F)c(-c4nc(N)cc(C)c4C(F)(F)F)c(Cl)cc23)C(C)C1 | pIC50 | 7.01

We now examine a further molecule.
Query: What pIC50 value was documented for this molecule, NC1c2ccccc2OC12CCN(c1cnc3c(N4CCCc5ncccc54)n[nH]c3n1)CC2 (configuration not stated) + C=CC(=O)N1CCN(c2nc(OCC3CCCN3C)nc3c(F)c(-c4nc(N)cc(C)c4C(F)(F)F)c(Cl)cc23)C(C)C1 ?
Result: < 5.00

---

The entries below are paired with their reported pIC50.
system: 242566-281-R-J2-PDC complex spheroid viability; test: Anticancer human tumor 242566-281-R-J2-PDC cell line growth inhibition [RAS]; settings: curve of first compound; second compound 0.316 µM;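 further: spheroids exposed to compound for 7 days before readout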
Please express pIC50 as -log10 of the molar concentration.

# annotated cases, reported pIC50 shown
COMPOUND | NUMERIC_READOUT
CC(Nc1ccc2c(c1)OCCn1cc(N3C(=O)OCC3C(F)F)nc1-2)C(N)=O (stereo unspecified) + C#Cc1c(F)ccc2cc(O)cc(-c3ncc4c(N5CC6CCC(C5)N6)nc(OCC56CCCN5CC(F)C6)nc4c3F)c12 | 6.97
CC(C)NCC(C(=O)N1CCN(c2ncnc3c2C(C)CC3O)CC1)c1ccc(Cl)cc1 (stereo unspecified) + C#Cc1c(F)ccc2cc(O)cc(-c3ncc4c(N5CC6CCC(C5)N6)nc(OCC56CCCN5CC(F)C6)nc4c3F)c12 | 5.76
Nc1ccn(C2OC(CO)C(O)C2(F)F)c(=O)n1 (stereo unspecified) + C#Cc1c(F)ccc2cc(O)cc(-c3ncc4c(N5CC6CCC(C5)N6)nc(OCC56CCCN5CC(F)C6)nc4c3F)c12 | 6.74
O=C(c1ccc(F)c(F)c1Nc1ccc(I)cc1F)N1CC(O)([C@@H]2CCCCN2)C1 + C#Cc1c(F)ccc2cc(O)cc(-c3ncc4c(N5CC6CCC(C5)N6)nc(OCC56CCCN5CC(F)C6)nc4c3F)c12 | 7.60
CCc1c2c(nc3ccc(O)cc13)-c1cc3c(c(=O)n1C2)COC(=O)[C@]3(O)CC + C=CC(=O)N1CCN(c2nc(OCC3CCCN3C)nc3c(F)c(-c4nc(N)cc(C)c4C(F)(F)F)c(Cl)cc23)C(C)C1 | 7.39
CC(C)n1nc(-c2ccc3oc(N)nc3c2)c2c(N)ncnc21 + C#Cc1c(F)ccc2cc(O)cc(-c3ncc4c(N5CC6CCC(C5)N6)nc(OCC56CCCN5CC(F)C6)nc4c3F)c12 | 8.18
CCC(CC)c1cc(NC2CCC(N)C2)n2nccc2n1 (stereo unspecified) + C=CC(=O)N1CCN(c2nc(OCC3CCCN3C)nc3c(F)c(-c4nc(N)cc(C)c4C(F)(F)F)c(Cl)cc23)C(C)C1 | 5.42
Nc1ccn(C2OC(CO)C(O)C2(F)F)c(=O)n1 (stereo unspecified) + C=CC(=O)N1CCN(c2nc(OCC3CCCN3C)nc3c(F)c(-c4nc(N)cc(C)c4C(F)(F)F)c(Cl)cc23)C(C)C1 | 7.24

Query: What pIC50 value was documented for this compound, C=CC(=O)Nc1cc(Nc2nccc(-c3cn(C)c4ccccc34)n2)c(OC)cc1N(C)CCN(C)C + C#Cc1c(F)ccc2cc(O)cc(-c3ncc4c(N5CC6CCC(C5)N6)nc(OCC56CCCN5CC(F)C6)nc4c3F)c12 ?
Result: 7.06

Query: Now consider CC(Nc1ccc2c(c1)OCCn1cc(N3C(=O)OCC3C(F)F)nc1-2)C(N)=O (stereo unspecified) + C=CC(=O)N1CCN(c2nc(OCC3CCCN3C)nc3c(F)c(-c4nc(N)cc(C)c4C(F)(F)F)c(Cl)cc23)C(C)C1 and answer again.
Result: 5.84

The reported numbers originate from PubChem BioAssay AID2060910.
